Tested on: Saccharomyces cerevisiae
Test: protein stability index of tFT-peptide fusion (C-terminal peptide) (PSI (0-1 scale)); higher = more stable (slower turnover)
Conditions: genetic background: wild type; temperature: 30 C
protein stability index reference
Simply state the number, no unit and no words.

record_sequence="CGKCHSVYKVNA [RPS31 C-terminal 12 aa]" observation_type="protein stability index" data_value=0.624
record_sequence="GAAVGGALAFLI [DDR2 C-terminal 12 aa]" observation_type="protein stability index" data_value=0.677
record_sequence="DFNSKSKKKNDK [MIN6 C-terminal 12 aa]" observation_type="protein stability index" data_value=0.654
record_sequence="KNEELSKKHFSK [ROK1 C-terminal 12 aa]" observation_type="protein stability index" data_value=0.74
record_sequence="QKRSCFFLANIH [YKL183C-A C-terminal 12 aa]" observation_type="protein stability index" data_value=0.608

Identify protein stability index associated with the sequence NKGSQLLAKLLK [PUF6 C-terminal 12 aa] 0.674

Identify protein stability index associated with the sequence PLVHEVNGNEGK [DUF1 C-terminal 12 aa] 0.716

Identify protein stability index associated with the sequence ELPNGKVIYSRK [ERJ5 C-terminal 12 aa] 0.745

Identify protein stability index associated with the sequence VKDIHGRIPEML [AXL2 C-terminal 12 aa] 0.694

Identify protein stability index associated with the sequence HLENELKDQQEL [ATM1 C-terminal 12 aa] 0.715

Identify protein stability index associated with the sequence WNLQTLAADDAF [RPB11 C-terminal 12 aa] 0.729

Identify protein stability index associated with the sequence PKALFQSRDQEH [SIC1 C-terminal 12 aa] 0.702

---

Tested on: Saccharomyces cerevisiae
Experiment: protein stability index of tFT-peptide fusion (C-terminal peptide) (PSI (0-1 scale)); higher = more stable (slower turnover)
Settings: genetic background: wild type; temperature: 30 C
protein stability index reference
Simply state the number, no unit and no words.

record_sequence=RVGWCPCTGDRR data_value=0.663
record_sequence=RYCIRDNKSNRN data_value=0.705
record_sequence=CQVTDYLVLDWG data_value=0.727

Identify protein stability index associated with the sequence HSCPLLLAPPPS 0.608

Identify protein stability index associated with the sequence VSYFARCLGSLA 0.629

Identify protein stability index associated with the sequence PRLSPPSSPGPP 0.631

Identify protein stability index associated with the sequence AERKDKNRKKKR 0.705

Identify protein stability index associated with the sequence NGSAYEGRDYAN 0.626

Identify protein stability index associated with the sequence SSGALLLLTGFM 0.681

Identify protein stability index associated with the sequence VPRPPGPPPGPV 0.667

Identify protein stability index associated with the sequence GLPRASPLPIPV 0.517

Identify protein stability index associated with the sequence DFLSLPPISPLL 0.787

Identify protein stability index associated with the sequence GDVPHRIEGEFL 0.788

Identify protein stability index associated with the sequence RLLPLPRRTPPL 0.852

Identify protein stability index associated with the sequence WVSSRSSVVARG 0.653

Identify protein stability index associated with the sequence LQLFLWRVVAPV 0.477

Identify protein stability index associated with the sequence RKKQYEKKSEKP 0.689

Identify protein stability index associated with the sequence RSGWRLLHLTTL 0.613

Identify protein stability index associated with the sequence PKTSTPPPTSPA 0.675

Identify protein stability index associated with the sequence QCLSYFFPVPVA 0.258

Identify protein stability index associated with the sequence RSSVTIIGDINK 0.619

Identify protein stability index associated with the sequence KKKEKKRGRRKV 0.688

Identify protein stability index associated with the sequence PGSPPGLERLGR 0.694

Identify protein stability index associated with the sequence PSCFNAPRHPPT 0.749

Identify protein stability index associated with the sequence RGVPWVVFSVGA 0.542

Identify protein stability index associated with the sequence PDHPTLPRRNPL 0.743

Identify protein stability index associated with the sequence IIFRLLLSRFFL 0.543

Identify protein stability index associated with the sequence GLSSRQHPAPTT 0.693

Identify protein stability index associated with the sequence SGVVIDDSLKEE 0.683

Identify protein stability index associated with the sequence GTRREFVILYLF 0.191

---

System: Saccharomyces cerevisiae
Assay: protein stability index of tFT-peptide fusion (C-terminal peptide) (PSI (0-1 scale)); higher = more stable (slower turnover)
Conditions: genetic background: wild type; temperature: 30 C
// condition not met strictly below 0.7 in protein stability index; condition met otherwise

record_sequence="EKVRCIKKYQSW [APD1 C-terminal 12 aa]" class_label="condition met"

Field: next sequence
Quick check: does DEKVKKMVENLQ [TRS23 C-terminal 12 aa] have protein stability index greater than or equal to 0.7? condition met

---

protein stability index reference
Test system: Saccharomyces cerevisiae
Assay: protein stability index of tFT-peptide fusion (C-terminal peptide) (PSI (0-1 scale)); higher = more stable (slower turnover)
Conditions: genetic background: wild type; temperature: 30 C
Simply state the number, no unit and no words.

Guide cases for protein stability index, answers given:
record_sequence=FVSGRFLFFFVL observation_type="protein stability index" data_value=0.204
record_sequence=LFVSCGGCLAMF observation_type="protein stability index" data_value=0.687
record_sequence=STGLRISPPAYM observation_type="protein stability index" data_value=0.677
record_sequence=APHLPGHLTRPP observation_type="protein stability index" data_value=0.686
record_sequence=MGKNDSITPELA observation_type="protein stability index" data_value=0.712
record_sequence=PTFVQGVVLGRG observation_type="protein stability index" data_value=0.702

// moving on: another record for protein stability index
Identify protein stability index associated with the sequence SRFILSRLPLLS 0.595

---

Tested on: Saccharomyces cerevisiae
Experiment: protein stability index of tFT-peptide fusion (C-terminal peptide) (PSI (0-1 scale)); higher = more stable (slower turnover)
Conditions: genetic background: wild type; temperature: 30 C
// not met strictly below 0.7 in protein stability index; met otherwise

Please review the entries below; each comes with its answer.
record_sequence=WLSWATRRIVLG tested_target="Saccharomyces cerevisiae" class_label="not met"
record_sequence=QEKSLSHTQRYR tested_target="Saccharomyces cerevisiae" class_label=met
record_sequence=GLPRFFKNPPVV tested_target="Saccharomyces cerevisiae" class_label="not met"

Field: next sequence
Quick check: does YFGSHLILSRAT have protein stability index greater than or equal to 0.7? not met

---

Test system: Saccharomyces cerevisiae
Experiment: protein stability index of tFT-peptide fusion (C-terminal peptide) (PSI (0-1 scale)); higher = more stable (slower turnover)
Settings: genetic background: cdc53-1; temperature: 37 C
Observation type: protein stability index
Simply state the number, no unit and no words.

record_sequence=GFESTCSLLCVF tested_target="Saccharomyces cerevisiae" data_value=0.348
record_sequence=IWYGLFWLRFWV tested_target="Saccharomyces cerevisiae" data_value=0.572
record_sequence=YRKKIKNIWLRW tested_target="Saccharomyces cerevisiae" data_value=0.428
record_sequence=CFSIPLVILNVL tested_target="Saccharomyces cerevisiae" data_value=0.496
record_sequence=FGLRVHPIVFIF tested_target="Saccharomyces cerevisiae" data_value=0.269
record_sequence=SLCVVIFFSSIT tested_target="Saccharomyces cerevisiae" data_value=0.437

Identify protein stability index associated with the sequence YVASSWRHCFII 0.657

Identify protein stability index associated with the sequence LVWDLFRCFSML 0.716

Identify protein stability index associated with the sequence VGCMVVIWVLWG 0.225

Identify protein stability index associated with the sequence GVWLRAVRGFGV 0.759

Identify protein stability index associated with the sequence LFFVVFFLLFLL 0.446

Identify protein stability index associated with the sequence SQKKKIKKYKET 0.665

Identify protein stability index associated with the sequence CFYVGFLGYFVF 0.556

Identify protein stability index associated with the sequence FFLLLVSVLSGW 0.255

Identify protein stability index associated with the sequence SVLAIWLTVTLK 0.0696

Identify protein stability index associated with the sequence GGGSASGWRAAA 0.735

Identify protein stability index associated with the sequence LVGYCGAWACVV 0.677

Identify protein stability index associated with the sequence FYFLSFLLLLSP 0.132

Identify protein stability index associated with the sequence LQVPTLRLFVFF 0.724

Identify protein stability index associated with the sequence APPRSLSPPLLS 0.701

Identify protein stability index associated with the sequence VFMSVAPVSVLG 0.118

Identify protein stability index associated with the sequence PVGRSVFFVWFL 0.701

---

Tested on: Saccharomyces cerevisiae
Test: protein stability index of tFT-peptide fusion (C-terminal peptide) (PSI (0-1 scale)); higher = more stable (slower turnover)
Conditions: genetic background: wild type; temperature: 30 C
protein stability index reference

Guide cases for protein stability index, answers given:
record_sequence=IGFFFACFFSVF observation_type="protein stability index" data_value=0.363
record_sequence=VFVGGVSVLILF observation_type="protein stability index" data_value=0.434
record_sequence=ACACFWVVWVGW observation_type="protein stability index" data_value=0.238
record_sequence=DPPRPIMRIHMI observation_type="protein stability index" data_value=0.111
record_sequence=TFVLREYVWVMS observation_type="protein stability index" data_value=0.231
record_sequence=RNWVVDGWRRFP observation_type="protein stability index" data_value=0.192

Identify protein stability index associated with the sequence CFSIPLVILNVL 0.338

Identify protein stability index associated with the sequence RMLSLFFPLRTL 0.243
